Data origin: the supplement of paper PMC3334620

Each record here notes measured PBM E-score.
target-or-system: Ecm22 (UniProt Q05958)
Sequence: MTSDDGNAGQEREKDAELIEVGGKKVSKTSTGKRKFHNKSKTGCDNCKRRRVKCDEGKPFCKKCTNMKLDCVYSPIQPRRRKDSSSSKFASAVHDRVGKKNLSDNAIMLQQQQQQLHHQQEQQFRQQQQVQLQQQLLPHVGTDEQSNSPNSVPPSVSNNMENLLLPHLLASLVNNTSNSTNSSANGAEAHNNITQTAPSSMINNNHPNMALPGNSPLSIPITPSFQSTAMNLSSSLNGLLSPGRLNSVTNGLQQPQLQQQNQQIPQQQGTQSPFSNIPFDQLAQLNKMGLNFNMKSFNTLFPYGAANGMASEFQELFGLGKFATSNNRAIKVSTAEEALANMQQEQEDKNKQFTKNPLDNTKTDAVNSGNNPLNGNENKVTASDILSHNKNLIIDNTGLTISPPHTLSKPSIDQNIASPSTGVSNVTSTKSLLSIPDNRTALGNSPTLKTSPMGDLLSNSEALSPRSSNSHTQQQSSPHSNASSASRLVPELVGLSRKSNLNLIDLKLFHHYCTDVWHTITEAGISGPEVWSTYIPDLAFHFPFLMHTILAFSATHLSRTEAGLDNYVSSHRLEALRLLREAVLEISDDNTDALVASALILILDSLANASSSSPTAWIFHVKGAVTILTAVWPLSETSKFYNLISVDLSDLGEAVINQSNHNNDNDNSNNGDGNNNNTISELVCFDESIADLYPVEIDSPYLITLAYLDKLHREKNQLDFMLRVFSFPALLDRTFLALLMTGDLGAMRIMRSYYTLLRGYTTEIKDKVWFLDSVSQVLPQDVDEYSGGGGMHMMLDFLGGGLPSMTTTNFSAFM
protocol-notes: PBM E-score (8-mer binding enrichment) (E-score (-0.5 to 0.5)); higher = stronger / more preferred TF binding
assay-context: protein concentration: 200 nM; construct: GST-full length
In all, about 33,000 sequences were measured (“E-score (-0.5 to 0.5)”: median about -0.041, highest 2% from about 0.37 on). The entries come from a sample that favours the highest values as a whole.

>>> endpoint_value("AAAACGAT")
0.257
>>> endpoint_value("CACCATGG")
-0.173
>>> endpoint_value("CGACTGAG")
0.0682
>>> endpoint_value("CTGGCGAC")
-0.209
>>> endpoint_value("AGCGCACG")
0.097

-- ask Identify the reported PBM E-score for the following entry. ACGAGGGA
-- reply 0.41

-- ask Respond only with PBM E-score recorded for GTATGAAC
-- reply 0.234

-- ask Return PBM E-score (reported value) for this sequence: CAGATATC
-- reply -0.0887

-- ask Give the value of PBM E-score reported for the following: GTCGCATA
-- reply 0.369

-- ask Indicate its recorded PBM E-score; the sequence in question is GCTTGAGA
-- reply -0.0858

-- ask Kindly indicate its recorded PBM E-score. Item: CTCGCAGA
-- reply 0.0487

* * *

target-or-system: Ecm22 (UniProt Q05958)
Sequence: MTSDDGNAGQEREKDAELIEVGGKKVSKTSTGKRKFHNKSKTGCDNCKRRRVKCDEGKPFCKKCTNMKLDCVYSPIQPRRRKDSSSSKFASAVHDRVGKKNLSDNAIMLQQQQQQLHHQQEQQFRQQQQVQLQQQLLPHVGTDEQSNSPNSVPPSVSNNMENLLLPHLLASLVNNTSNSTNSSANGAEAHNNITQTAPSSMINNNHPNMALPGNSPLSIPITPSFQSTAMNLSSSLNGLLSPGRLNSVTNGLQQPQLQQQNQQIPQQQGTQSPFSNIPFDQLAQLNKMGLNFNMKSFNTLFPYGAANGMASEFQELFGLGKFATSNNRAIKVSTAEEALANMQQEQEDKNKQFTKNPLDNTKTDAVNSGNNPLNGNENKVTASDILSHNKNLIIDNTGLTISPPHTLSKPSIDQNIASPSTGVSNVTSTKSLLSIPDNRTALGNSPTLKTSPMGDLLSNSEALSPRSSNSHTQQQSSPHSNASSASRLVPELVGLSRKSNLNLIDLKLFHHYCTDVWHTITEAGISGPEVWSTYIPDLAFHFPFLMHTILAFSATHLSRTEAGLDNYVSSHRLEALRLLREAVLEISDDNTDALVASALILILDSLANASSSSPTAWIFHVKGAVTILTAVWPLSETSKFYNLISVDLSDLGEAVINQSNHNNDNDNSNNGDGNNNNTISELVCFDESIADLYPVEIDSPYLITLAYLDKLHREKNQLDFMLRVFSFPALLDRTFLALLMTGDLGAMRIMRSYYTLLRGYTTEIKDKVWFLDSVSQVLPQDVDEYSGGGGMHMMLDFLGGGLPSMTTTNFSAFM
protocol-notes: PBM E-score (8-mer binding enrichment) (E-score (-0.5 to 0.5)); higher = stronger / more preferred TF binding
assay-context: protein concentration: 200 nM; construct: GST-full length
Whole data set: some 33,000 sequences, median “E-score (-0.5 to 0.5)” near -0.041, cut for the highest 2% near 0.37. Only a selection was taken, and the highest values are over-represented in it overall.
Entries and their PBM E-score values follow.
Answer with a number only.

Solved cases below.
>>> endpoint_value("CACCGGAC")
0.112
>>> endpoint_value("GAACGAAA")
0.43
>>> endpoint_value("TGACGAAA")
0.061
>>> endpoint_value("CAACGAAC")
0.272

-- ask Return PBM E-score (reported value) for this sequence: AAACGGAC
-- reply 0.307

-- ask Identify measured PBM E-score corresponding to ACCCTCGT
-- reply 0.449

-- ask Please report the measured PBM E-score for CGACCGCC
-- reply 0.137

-- ask State its PBM E-score for this sequence: CCAAACGG
-- reply 0.287

* * *

target-or-system: Ecm22 (UniProt Q05958)
Sequence: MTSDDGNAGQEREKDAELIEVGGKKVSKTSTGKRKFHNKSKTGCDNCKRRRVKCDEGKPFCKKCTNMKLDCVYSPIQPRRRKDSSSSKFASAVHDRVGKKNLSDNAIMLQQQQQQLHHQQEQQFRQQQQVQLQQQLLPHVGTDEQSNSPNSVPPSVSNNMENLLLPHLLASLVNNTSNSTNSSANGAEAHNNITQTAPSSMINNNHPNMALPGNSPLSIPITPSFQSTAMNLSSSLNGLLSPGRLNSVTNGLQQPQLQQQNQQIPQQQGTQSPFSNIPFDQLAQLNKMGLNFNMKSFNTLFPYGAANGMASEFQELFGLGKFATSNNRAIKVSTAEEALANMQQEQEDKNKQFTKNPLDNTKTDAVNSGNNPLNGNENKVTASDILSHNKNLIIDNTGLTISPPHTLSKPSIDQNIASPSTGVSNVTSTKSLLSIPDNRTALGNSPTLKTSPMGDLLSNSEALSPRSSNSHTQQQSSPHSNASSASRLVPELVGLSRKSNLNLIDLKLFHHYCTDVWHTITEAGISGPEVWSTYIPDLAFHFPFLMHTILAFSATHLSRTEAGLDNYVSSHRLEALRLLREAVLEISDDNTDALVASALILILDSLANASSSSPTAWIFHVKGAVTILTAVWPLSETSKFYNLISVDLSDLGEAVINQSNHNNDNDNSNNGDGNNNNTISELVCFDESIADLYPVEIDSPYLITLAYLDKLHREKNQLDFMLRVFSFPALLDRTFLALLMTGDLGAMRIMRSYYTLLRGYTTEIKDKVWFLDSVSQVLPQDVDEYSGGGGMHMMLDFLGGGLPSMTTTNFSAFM
protocol-notes: PBM E-score (8-mer binding enrichment) (E-score (-0.5 to 0.5)); higher = stronger / more preferred TF binding
assay-context: protein concentration: 200 nM; construct: GST-full length
Over roughly 33,000 sequences, “E-score (-0.5 to 0.5)” has its median near -0.041; the highest 2% begin near 0.37. The sample holds the highest values, similar sequences and a random draw of the others, so the mix is not that of the screen.
Each item that follows carries a reported PBM E-score.

>>> endpoint_value("CACGAGTA")
0.157
>>> endpoint_value("TACGAGTA")
0.467
>>> endpoint_value("CATCGTAA")
0.381
>>> endpoint_value("CATACCGC")
-0.0365
>>> endpoint_value("CGTACCGC")
0.47

-- ask Fill in: PBM E-score on Ecm22 (UniProt Q05958), entry AATCGTAG
-- reply 0.211

-- ask Lab note: Ecm22 (UniProt Q05958) assay, enter PBM E-score for AGTACCGA here
-- reply 0.0799

* * *

Item-by-item account of PBM E-score
target-or-system: Ecm22 (UniProt Q05958)
Sequence: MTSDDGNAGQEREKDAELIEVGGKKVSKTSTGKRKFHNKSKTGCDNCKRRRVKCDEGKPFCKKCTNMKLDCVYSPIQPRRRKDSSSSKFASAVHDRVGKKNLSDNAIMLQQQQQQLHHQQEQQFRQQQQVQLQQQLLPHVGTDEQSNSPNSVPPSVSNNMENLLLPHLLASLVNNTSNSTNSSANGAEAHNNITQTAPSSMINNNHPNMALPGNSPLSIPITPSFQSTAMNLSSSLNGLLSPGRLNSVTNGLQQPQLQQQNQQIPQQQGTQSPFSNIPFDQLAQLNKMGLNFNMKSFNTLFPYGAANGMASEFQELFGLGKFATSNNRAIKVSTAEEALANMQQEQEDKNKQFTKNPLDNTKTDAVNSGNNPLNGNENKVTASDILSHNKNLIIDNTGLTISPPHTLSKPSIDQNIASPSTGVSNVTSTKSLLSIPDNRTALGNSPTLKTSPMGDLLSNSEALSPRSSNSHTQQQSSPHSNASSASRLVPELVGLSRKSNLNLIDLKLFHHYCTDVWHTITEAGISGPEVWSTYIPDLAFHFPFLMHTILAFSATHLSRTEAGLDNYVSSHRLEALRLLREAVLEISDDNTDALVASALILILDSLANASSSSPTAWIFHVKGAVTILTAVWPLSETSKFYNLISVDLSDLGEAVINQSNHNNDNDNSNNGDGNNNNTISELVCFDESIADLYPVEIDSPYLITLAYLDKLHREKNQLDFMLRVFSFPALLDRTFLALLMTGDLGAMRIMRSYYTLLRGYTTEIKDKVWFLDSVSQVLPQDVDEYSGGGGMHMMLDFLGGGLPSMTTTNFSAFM
protocol-notes: PBM E-score (8-mer binding enrichment) (E-score (-0.5 to 0.5)); higher = stronger / more preferred TF binding
assay-context: protein concentration: 200 nM; construct: GST-full length
The full ranking holds about 33,000 sequences; the median of “E-score (-0.5 to 0.5)” is about -0.041, and the highest 2% start at about 0.37. Only a selection was taken, and the highest values are over-represented in it overall.
Answer with a bare number; do not write a unit.

These recorded examples may help you get a feel for the data.
>>> endpoint_value("AACCGCGC")
-0.0112
>>> endpoint_value("TAAACGTA")
0.38
>>> endpoint_value("ACCGAAGT")
0.207
>>> endpoint_value("AAAACGTA")
0.164
>>> endpoint_value("ACTCGGCT")
0.112

-- ask Write down the reported PBM E-score (system: Ecm22 (UniProt Q05958)) of AACCGGAG
-- reply -0.0216

-- ask # return PBM E-score for ACTCGCTC , test system: Ecm22 (UniProt Q05958)
-- reply 0.354

-- ask Given CACGAAGA , report its PBM E-score on Ecm22 (UniProt Q05958).
-- reply 0.226

-- ask Report PBM E-score on Ecm22 (UniProt Q05958) for this entry: AATCTGTG
-- reply -0.0802

-- ask Would you please give the reported PBM E-score of ACGCAGGA with Ecm22 (UniProt Q05958)?
-- reply 0.108
